Molecular target: T1, LRRC7, Q96NW7
T1 sequence (Q96NW7 1440-1537, limits assumed, looked up): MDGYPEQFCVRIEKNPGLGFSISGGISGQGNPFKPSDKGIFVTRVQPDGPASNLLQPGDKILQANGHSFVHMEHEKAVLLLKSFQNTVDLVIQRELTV
Assay: holdup assay
Parameters: key: below the threshold = too weak to quantify, mostly under pKd 3.1 to 4
Settings: plain residues with an end cap or a label only (N-terminal biotin on a linker: ahx)

BINDER	pKd
APSRKLNTEI [TIAM1, Q13009]	below the threshold
QDEKVKESYV [ABCA1, O95477]	4.13
TQKFRASTAL [FRMPD1, Q5SYB0]	below the threshold
QNTDDVQTSF [ACE2, Q9BYF1]	below the threshold
HTHSYIETHV [CNKSR2, Q8WXI2]	4.75
TESNLQTSSC [CGN, Q9P2M7]	below the threshold
TEAKLTETNA [MYO18A, Q92614]	below the threshold
EKQAKGDTEF [CACYBP, Q9HB71]	below the threshold
QPRTWLQSPV [RTKN, Q9BST9]	3.73
